Provide the recorded melting point for the entries that follow.

Below, 8 compounds whose answers are already recorded.
[[record]]
compound = "COc1cc2c(cc1C(F)(F)F)N(C(=O)Nc1ccc(Oc3cccc(C(F)(F)F)c3)nc1)CC2 [Example 165]"
recorded_result = "193 to 194 °C"

[[record]]
compound = "CSc1cc2c(cc1C(F)(F)F)N(C(=O)Nc1ccc(Sc3ccncc3)nc1)CC2 [Example 145]"
recorded_result = "214 to 216 °C"

[[record]]
compound = "COc1cc2c(cc1C(F)(F)F)N(C(=O)Nc1ccc(F)c(-c3cccnc3)c1)CC2 [Example 77]"
recorded_result = "210 to 212 °C"

[[record]]
compound = "COc1cc2c(cc1C(F)(F)F)N(C(=O)Nc1cccc(-c3cnc(C)cc3C)c1)CC2 [Example 117]"
recorded_result = "161 to 162 °C"

[[record]]
compound = "COc1cc2c(cc1C(F)(F)F)N(C(=O)Nc1cc(F)cc(-c3cnc(C)cc3C)c1)CC2 [Example 127]"
recorded_result = "215 to 218 °C"

[[record]]
compound = "COc1cc2c(cc1C(F)(F)F)N(C(=O)Nc1cccc(-c3cccnc3C)c1)CC2 [Example 110]"
recorded_result = "179 to 180 °C"

[[record]]
compound = "COc1cc2c(cc1C(F)(F)F)N(C(=O)Nc1cccc(-c3cccnc3)c1Cl)CC2 [Example 85]"
recorded_result = "214 to 216 °C"

[[record]]
compound = "C=Cc1cc(NC(=O)N2CCc3cc(OC)c(C(F)(F)F)cc32)cc(-c2cccnc2)c1 [Example 104]"
recorded_result = "138 to 140 °C"


Below is a list of compounds. For each, state its recorded melting point.
1. COc1cc2c(cc1C(F)(F)F)N(C(=O)Nc1cccc(-c3cncnc3)c1)CC2 [Example 119]
2. CCc1cc(NC(=O)N2CCc3cc(OC)c(C(F)(F)F)cc32)cc(-c2cccnc2)c1 [Example 42]
3. Cc1ncccc1Oc1ccc(NC(=O)N2CCc3cc(Br)c(C(F)(F)F)cc32)cn1
4. COc1cc2c(cc1C(F)(F)F)N(C(=O)Nc1ccnc(Oc3cccnc3)c1)CC2 [Example 64]

245 to 250 °C
205 to 207 °C
211 to 213 °C
223 to 225 °C

###

Provide the recorded melting point for the entries that follow.

Below, 3 compounds whose answers are already recorded.
[[record]]
smiles_input = "CCc1ccccc1Oc1ccc(NC(=O)N2CCc3cc(OC)c(C(F)(F)F)cc32)cn1"
recorded_result = "215 to 220 °C"

[[record]]
smiles_input = "COc1cc2c(cc1C(F)(F)F)N(C(=O)Nc1cncc(-c3ccncc3)c1)CC2"
recorded_result = "230 to 234 °C"

[[record]]
smiles_input = "COc1cc2c(cc1C(F)(F)F)N(C(=O)Nc1ccc(Oc3cccnc3C)nc1)CC2"
recorded_result = "227 to 230 °C"


Below is a list of compounds. For each, state its recorded melting point.
1. COc1cc2c(cc1C(F)(F)F)N(C(=O)Nc1ccc(Cl)c(-c3cccnc3)c1)CC2
2. COc1cc2c(cc1C(F)(F)F)N(C(=O)Nc1ccc(Oc3ccc(C)nc3C)nc1)CC2
3. CSc1cc2c(cc1C(F)(F)F)N(C(=O)Nc1ccc(Sc3cccnc3)nc1)CC2
4. COc1cc2c(cc1C(F)(F)F)N(C(=O)Nc1cc(Cl)cc(-c3cccnc3)c1)CC2
5. COc1cc2c(cc1C(F)(F)F)N(C(=O)Nc1cccc(-c3noc(CN(C)C)n3)c1)CC2

1: 210 to 213 °C; 2: 230 to 233 °C; 3: 204 to 206 °C; 4: 183 to 185 °C; 5: 154 to 155 °C

Below is a list of compounds. For each, state its recorded melting point.
1. COc1cc2c(cc1C(F)(F)F)N(C(=O)Nc1ccc(-c3cccnc3)cn1)CC2
2. CSc1cc2c(cc1C(F)(F)F)N(C(=O)Nc1cccc(C(=O)CCc3ccccn3)c1)CC2
3. Cc1cc2c(cc1Cl)N(C(=O)Nc1ccc(F)c(-c3cccnc3)c1)CC2
4. COc1cc2c(cc1C(F)(F)F)N(C(=O)Nc1ccc(OCc3ccncc3)cc1)CC2
5. COc1cc2c(cc1C(F)(F)F)N(C(=O)Nc1ccc(Oc3ccccc3)nc1)CC2
6. COc1cc2c(cc1C(F)(F)F)N(C(=O)Nc1cccc(-c3ccc(C)nn3)c1)CC2
7. COc1cc2c(cc1C(F)(F)F)N(C(=O)Nc1ccc(Sc3ccncc3)nc1)CC2
8. COc1cc2c(cc1C(F)(F)F)N(C(=O)Nc1cc(C(C)=O)cc(-c3cccnc3)c1)CC2

1: > 225 °C; 2: 145 to 146 °C; 3: 185 to 186 °C; 4: 205 to 207 °C; 5: 202 to 203 °C; 6: 229 to 231 °C; 7: 204 to 206 °C; 8: 174 to 176 °C

Value lookup for melting point; key = "COc1cc2c(cc1C(F)(F)F)N(C(=O)Nc1cncc(-c3ccc(F)cc3)c1)CC2" > 200 °C

###

outcome-measure: melting point

Below, 3 compounds whose answers are already recorded.
[[record]]
compound = "COc1cc2c(cc1C(F)(F)F)N(C(=O)Nc1ccc(Oc3ccc(C(N)=O)cc3)nc1)CC2 [Example 163]"
recorded_result = "245 to 248 °C"

[[record]]
compound = "COc1cc2c(cc1C(F)(F)F)N(C(=O)Nc1cccc(-c3c(C)ccnc3C)c1)CC2 [Example 111]"
recorded_result = "202 to 204 °C"

[[record]]
compound = "COc1cc2c(cc1C(F)(F)F)N(C(=O)Nc1cccc(-c3cnccn3)c1)CC2 [Example 120]"
recorded_result = "208 to 209 °C"


Please look at the following compound next.
Value lookup for melting point; key = CSc1cc2c(cc1C(F)(F)F)N(C(=O)Nc1cccc(C(=O)NCc3cccnc3)c1)CC2 [Example 148] 210 to 215 °C

###

Provide the recorded melting point for the entries that follow.

[[record]]
smiles_input = "COc1cc2c(cc1C(F)(F)F)N(C(=O)Nc1ccc(OCc3ccncc3)nc1)CC2"
recorded_result = "187 to 189 °C"


Below is a list of molecules. For each, state its recorded melting point.
1. COc1cc2c(cc1C(F)(F)F)N(C(=O)Nc1cc(-c3cccnc3)ccc1F)CC2
2. COc1cc2c(cc1C(F)(F)F)N(C(=O)Nc1ccc(-c3cccnc3)nc1)CC2
3. CSc1cc2c(cc1C(F)(F)F)N(C(=O)Nc1ccc(-c3cncc(Cl)c3)nc1)CC2
4. COc1cc2c(cc1C(F)(F)F)N(C(=O)Nc1cccc(-c3ccnc(C)n3)c1)CC2
5. COc1cc2c(cc1C(F)(F)F)N(C(=O)Nc1cc(F)c(C)c(N3C=CC=NC3)c1)CC2
6. CSc1cc2c(cc1C(F)(F)F)N(C(=O)Nc1ccc(Cc3ccncc3)cc1)CC2

233 °C (dec.)
> 270 °C
193 to 195 °C
> 220 °C
188 to 189 °C
206 to 209 °C

Below is a list of molecules. For each, state its recorded melting point.
1. COc1cc2c(cc1C(F)(F)F)N(C(=O)Nc1ccc(Oc3cnccc3C)nc1)CC2
2. COc1cc2c(cc1C(F)(F)F)N(C(=O)Nc1cncc(-c3ccc(F)c(Cl)c3)c1)CC2
3. COc1cc2c(cc1C(F)(F)F)N(C(=O)Nc1ccc(-c3cccnc3)cc1)CC2
4. COc1cc2c(cc1C(F)(F)F)N(C(=O)Nc1cc(F)cc(-c3cnccc3C)c1)CC2
5. Cc1cc2c(cc1Cl)N(C(=O)Nc1cc(F)c(C)c(-c3cccnc3)c1)CC2
6. COc1cc2c(cc1C(F)(F)F)N(C(=O)Nc1ccc3c(ccn3-c3ccncc3)c1)CC2

1: 188 to 191 °C; 2: 113 to 115 °C; 3: > 230 °C; 4: 191 to 195 °C; 5: 233 to 235 °C; 6: 206 to 211 °C

###

Provide the recorded melting point for the entries that follow.

Below, 4 compounds whose answers are already recorded.
[[record]]
smiles_input = "Cc1cc2c(cc1Cl)N(C(=O)Nc1cc(F)cc(-c3cccnc3C)c1)CC2"
recorded_result = "205 to 206 °C"

[[record]]
smiles_input = "COc1cc2c(cc1C(F)(F)F)N(C(=O)Nc1cccc(-c3cccc(CN(C)C)c3)c1)CC2"
recorded_result = "185 to 187 °C"

[[record]]
smiles_input = "COc1cc2c(cc1C(F)(F)F)N(C(=O)Nc1cccc(-c3ccc(N(C)C)cc3)c1)CC2"
recorded_result = "213 to 215 °C"

[[record]]
smiles_input = "CSc1cc2c(cc1C(F)(F)F)N(C(=O)Nc1cccc(C(=O)NCc3ccccn3)c1)CC2"
recorded_result = "116 to 118 °C"


Please look at the following compound next.
Value lookup for melting point; key = "CSc1cc2c(cc1C(F)(F)F)N(C(=O)Nc1cncc(-c3ccccc3)c1)CC2" 208 to 214 °C

Numbers sourced from patent US6638953B2.
